experimental_target: Tyrosine-protein kinase SYK (Homo sapiens) (UniProt P43405)
assay: Inhibition of human recombinant GST-tagged SYK (M1 to N635 residues) assessed as residual activity using poly (Glu,Tyr) as substrate in presence of ATP and Ci(gamma33-P) ATP at 1 uM measured by microplate reader assay
measured_endpoint: Activity (%)

>>> meas_value("COc1ccc(Cn2cnc3c(Nc4ccc(C(=O)N5CCOCC5)cc4)nc(-c4cccc(NC(=O)c5ccc(C(C)(C)C)cc5)c4C)cc32)cc1")
82.3
>>> meas_value("Cc1c(NC(=O)c2ccc(C(C)(C)C)cc2)cccc1-c1cc2[nH]cnc2c(Nc2ccc(C(=O)N3CCOCC3)cc2)n1")
80.3
>>> meas_value("CC(=O)Nc1cccc(-c2cc3[nH]cnc3c(Nc3ccc(C(=O)N4CCOCC4)cc3)n2)c1C")
61.7
